Origin of the recorded values: paper PMC10397247

system tested: T1, 4H3753-AA
T1 chain: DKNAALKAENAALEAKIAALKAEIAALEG
protocol summary: two-hybrid library CCmax;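 also: natural log of median RNA to DNA barcode read ratio; higher means stronger binding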
test parameters: mean of both orientations
property: interaction score

[[record]]
binder = "DKIAALEAKNAALEAKIAALKAEIAALEG [4H2473-AA]"
property = "interaction score"
readout_number = -0.919


a: DEIAALEAKIAALEAKNAALEAKIAALKG [4H310-AA]
b: DENAALEAKNAALKAEIAALEAKIAALKG [4H1478-AA]
c: DKIAALKAENAALEAEIAALKAEIAALKG [4H2698-AA]
d: DKIAALEAEIAALEAKNAALKAKIAALEG [4H2109-AA]
e: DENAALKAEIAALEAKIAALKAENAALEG [4H1579-AA]
Incoming: Thanks in advance: please rank these 5 entries by interaction score, highest to lowest. Please list each label once, in the requested order.
Outgoing: b, e, d, c, a
(b: 2.25, e: 1.01, d: 0.644, c: -1, a: -1.8)
